I'd appreciate it if you could supply abundance fitness values for the items below.
B1: 3'-5' exoribonuclease 1, residues 65 to 114; numbered along this chain, Q8IV48 (parent)
chain: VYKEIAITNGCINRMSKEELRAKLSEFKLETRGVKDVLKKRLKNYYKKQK

Variants of: B1
Test: abundance fitness (aPCA) (normalised: wild type 0, dead -1); higher = more abundant; growth selection in yeast, the domain comes from the species named
Conditions: Homo sapiens
Give bare numbers.

Previously resolved entries follow.
1) K17H: -0.591
2) K3L: -0.331
3) N13T: -0.684
4) C11K: -0.039

// next entry
Task: Tell me measured abundance fitness for "E19G" please.
Output: -0.375
